Entries and their ratio of IC50 for cells with mutant EGFR to IC50 for cells with wildtype EGFR (Mut/WT) values follow.
- Assayed System: EGFR E709K L858R (Homo sapiens, UniProt P00533, E709K/L858R)
- Construct: expressed in transfected cells; host or cells: Ba/F3 cells, retroviral pBabe-Puro vector
- Protocol: Ba/F3 drug screening, Cell Titer Glo, IC50 Mut/WT
- Format: cell-based
- Test Context: Classical-Like, 72 hours
Number only, please.

The reported ratio of IC50 for cells with mutant EGFR to IC50 for cells with wildtype EGFR (Mut/WT) value, EGFR E709K L858R (Homo sapiens, UniProt P00533, E709K/L858R), for C=CC(=O)N1CC[C@@H](Oc2nc(Nc3ccc(N4CCC(N5CCN(C)CC5)CC4)cc3)c(C(N)=O)nc2CC)C1 [Naquotinib] reads 0.0818

The reported ratio of IC50 for cells with mutant EGFR to IC50 for cells with wildtype EGFR (Mut/WT) value, EGFR E709K L858R (Homo sapiens, UniProt P00533, E709K/L858R), for COc1cc2ncnc(Nc3cccc(Cl)c3F)c2cc1OC(=O)N1CCN(C)C[C@H]1C [AZD3759] reads 0.02202

The reported ratio of IC50 for cells with mutant EGFR to IC50 for cells with wildtype EGFR (Mut/WT) value, EGFR E709K L858R (Homo sapiens, UniProt P00533, E709K/L858R), for C=CC(=O)N[C@H]1C=C(C)c2c(-c3cnc4ccccc4c3)c3c(N)ncnc3n2C1 [TAS 6417] reads 0.002607

The reported ratio of IC50 for cells with mutant EGFR to IC50 for cells with wildtype EGFR (Mut/WT) value, EGFR E709K L858R (Homo sapiens, UniProt P00533, E709K/L858R), for C=CC(=O)Nc1cc(Nc2nccc(-n3cc(CN(C)C)c(-c4ccccc4)n3)n2)c(OC)cc1N1CCOCC1 [Lazertinib] reads 0.0006261

---

Entries and their ratio of IC50 for cells with mutant EGFR to IC50 for cells with wildtype EGFR (Mut/WT) values follow.
- Assayed System: EGFR L858R G724S (Homo sapiens, UniProt P00533, G724S/L858R)
- Construct: expressed in transfected cells; host or cells: Ba/F3 (retroviral transduction, pBabe-Puro based vectors)
- Protocol: Ba/F3 drug screening, Cell Titer Glo, IC50 Mut/WT
- Assay type: cell-based
- Test Context: PACC; L858R G724S; Ba/F3; 72 hours
Number only, please.

Looking up `COc1cc2ncnc(Nc3cccc(Cl)c3F)c2cc1OC(=O)N1CCN(C)C[C@H]1C` , I see its ratio of IC50 for cells with mutant EGFR to IC50 for cells with wildtype EGFR (Mut/WT) listed as 0.0005419

Looking up `CNC(=O)CN1CCC(Oc2cc3c(Nc4cccc(Cl)c4F)ncnc3cc2OC)CC1` , I see its ratio of IC50 for cells with mutant EGFR to IC50 for cells with wildtype EGFR (Mut/WT) listed as 0.0004959

Looking up `COc1cc2ncnc(Nc3ccc(F)c(Cl)c3)c2cc1NC(=O)/C=C/CN1CCCCC1` , I see its ratio of IC50 for cells with mutant EGFR to IC50 for cells with wildtype EGFR (Mut/WT) listed as 0.0005712

Looking up `CN(C)C/C=C/C(=O)Nc1cc2c(Nc3ccc(Cl)c(Br)c3)ncnc2cn1` , I see its ratio of IC50 for cells with mutant EGFR to IC50 for cells with wildtype EGFR (Mut/WT) listed as 0.02628
